Biological target: Phosphatidylinositol 4,5-bisphosphate 3-kinase catalytic subunit alpha isoform (Homo sapiens)
Sequence (P42336 whole entry, canonical isoform): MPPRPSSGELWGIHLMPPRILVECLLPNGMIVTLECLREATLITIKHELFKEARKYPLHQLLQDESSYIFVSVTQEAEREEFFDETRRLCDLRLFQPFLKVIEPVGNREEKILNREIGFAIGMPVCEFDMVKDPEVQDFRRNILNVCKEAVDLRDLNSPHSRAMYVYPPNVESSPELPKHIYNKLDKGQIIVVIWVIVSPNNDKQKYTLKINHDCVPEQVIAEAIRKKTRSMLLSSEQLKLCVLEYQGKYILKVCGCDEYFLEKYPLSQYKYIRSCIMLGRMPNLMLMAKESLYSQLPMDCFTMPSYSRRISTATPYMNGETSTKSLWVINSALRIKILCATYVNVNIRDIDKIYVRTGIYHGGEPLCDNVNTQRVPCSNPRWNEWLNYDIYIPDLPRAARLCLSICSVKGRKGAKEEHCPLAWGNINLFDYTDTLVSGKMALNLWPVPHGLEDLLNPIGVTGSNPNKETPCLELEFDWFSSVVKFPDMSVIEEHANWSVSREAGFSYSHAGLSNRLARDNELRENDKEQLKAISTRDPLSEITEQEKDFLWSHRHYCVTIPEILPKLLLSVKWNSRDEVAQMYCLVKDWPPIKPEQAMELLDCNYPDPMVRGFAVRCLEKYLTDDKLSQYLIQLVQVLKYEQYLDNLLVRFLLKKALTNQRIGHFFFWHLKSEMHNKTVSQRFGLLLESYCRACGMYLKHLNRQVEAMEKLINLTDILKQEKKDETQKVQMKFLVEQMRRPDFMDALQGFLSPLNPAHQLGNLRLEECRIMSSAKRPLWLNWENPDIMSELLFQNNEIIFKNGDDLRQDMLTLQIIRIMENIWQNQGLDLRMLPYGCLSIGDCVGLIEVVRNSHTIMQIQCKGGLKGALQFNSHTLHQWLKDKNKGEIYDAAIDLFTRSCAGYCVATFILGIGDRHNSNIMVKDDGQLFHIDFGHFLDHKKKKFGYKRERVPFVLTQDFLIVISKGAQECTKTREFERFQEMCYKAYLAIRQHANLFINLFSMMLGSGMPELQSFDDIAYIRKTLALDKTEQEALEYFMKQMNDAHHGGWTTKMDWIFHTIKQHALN
Test: Inhibition of PI3Kalpha
Please go through the items and note down their pIC50.
Please note pIC50 is a logarithmic value: minus log10 of concentration in mol/L. Answer with that number alone.

INPUT: Please look at this compound and report its pIC50: O=C(Cc1nc(N2CCOCC2)cc(=O)[nH]1)Nc1ccc(F)c([N+](=O)[O-])c1
OUTPUT: 5.36

INPUT: Specify pIC50 for O=C(Cc1nc(N2CCOCC2)cc(=O)[nH]1)Nc1ccc(F)c(Cl)c1 and stop.
OUTPUT: 5.72

INPUT: Return reported pIC50. Input compound: O=C(Cc1nc(N2CCOCC2)cc(=O)[nH]1)Nc1cccc(F)c1
OUTPUT: 5.21

INPUT: # return recorded pIC50 for entry Cn1c(CC(=O)Nc2ccc(F)c(F)c2)nc(N2CCOCC2)cc1=O
OUTPUT: 5.07

INPUT: Give pIC50 for the following compound: Cc1cccc(NC(=O)Cc2nc(N3CCOCC3)cc(=O)[nH]2)c1
OUTPUT: 6.20

INPUT: Name the recorded pIC50 of the compound listed here: O=C(Cc1nc(N2CCOCC2)cc(=O)[nH]1)Nc1ccc(Cl)cc1
OUTPUT: 5.64

INPUT: Supply reported pIC50 belonging to this compound: O=C(Cc1nc(N2CCOCC2)cc(=O)[nH]1)Nc1cccc(Br)c1
OUTPUT: 5.72

INPUT: State, in one line, measured pIC50 of COC(=O)c1cc(NC(=O)Cc2nc(N3CCOCC3)cc(=O)[nH]2)ccc1F
OUTPUT: 5.09

INPUT: Tell me pIC50 reported for Cc1cc(NC(=O)Cc2nc(N3CCOCC3)cc(=O)[nH]2)ccc1F
OUTPUT: 6.08

====

Test: Drug uptake in PTEN deficient human PC3 cells xenografted SCID mouse tumor at 244 mg/kg, po administered as suspension after 1 hr
Format: ADME, organism-based, Neoplasm, PC-3
Parameters: dose 244 mg/kg, route oral
Conditions: tumor (PC3 xenograft), read-out: Drug uptake
test.readout: concentration at 1 h (µM)
The reply should be a number in µM, with the unit left off.

INPUT: Consider the molecule Cn1c(CC(=O)Nc2ccc(F)c(Cl)c2)nc(N2CCOCC2)cc1=O and give its recorded concentration at 1 h.
OUTPUT: 6

====

Biological target: Phosphatidylinositol 4,5-bisphosphate 3-kinase catalytic subunit delta isoform (Homo sapiens, UniProt O00329)
Sequence (O00329 whole entry, canonical isoform): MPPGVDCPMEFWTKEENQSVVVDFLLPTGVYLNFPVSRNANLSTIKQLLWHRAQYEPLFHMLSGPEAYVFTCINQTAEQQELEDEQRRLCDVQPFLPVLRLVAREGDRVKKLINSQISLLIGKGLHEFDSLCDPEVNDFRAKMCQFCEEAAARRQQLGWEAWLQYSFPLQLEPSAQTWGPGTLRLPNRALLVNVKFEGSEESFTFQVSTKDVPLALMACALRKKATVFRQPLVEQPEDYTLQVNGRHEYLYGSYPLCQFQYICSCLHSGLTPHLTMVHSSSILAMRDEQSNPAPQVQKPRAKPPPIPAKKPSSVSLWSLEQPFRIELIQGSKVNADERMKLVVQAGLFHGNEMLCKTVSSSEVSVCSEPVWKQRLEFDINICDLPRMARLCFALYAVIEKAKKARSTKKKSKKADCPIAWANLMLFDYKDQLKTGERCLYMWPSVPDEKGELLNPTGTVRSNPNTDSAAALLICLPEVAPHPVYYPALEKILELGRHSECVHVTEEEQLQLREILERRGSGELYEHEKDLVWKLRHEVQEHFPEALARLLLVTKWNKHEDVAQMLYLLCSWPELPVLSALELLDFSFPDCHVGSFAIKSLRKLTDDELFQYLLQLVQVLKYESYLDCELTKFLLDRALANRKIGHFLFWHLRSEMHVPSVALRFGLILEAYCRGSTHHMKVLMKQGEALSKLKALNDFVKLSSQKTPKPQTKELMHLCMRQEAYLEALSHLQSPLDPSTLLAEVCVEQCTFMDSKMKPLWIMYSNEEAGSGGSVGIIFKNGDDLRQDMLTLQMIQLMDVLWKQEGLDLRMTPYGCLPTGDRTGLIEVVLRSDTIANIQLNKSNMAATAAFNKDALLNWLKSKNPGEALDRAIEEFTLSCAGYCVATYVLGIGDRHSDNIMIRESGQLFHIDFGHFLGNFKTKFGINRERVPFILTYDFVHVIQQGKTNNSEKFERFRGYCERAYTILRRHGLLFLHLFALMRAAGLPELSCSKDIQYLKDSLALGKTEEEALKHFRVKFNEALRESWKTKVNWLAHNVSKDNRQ
Assay: Inhibition of PI3Kdelta
Assign pIC50 to each entry below.
Entry type: numeric. Quantity: pIC50, the -log10 of concentration in molar units.

INPUT: Determine from records and report pIC50 for O=C(Cc1nc(N2CCOCC2)cc(=O)[nH]1)Nc1ccc(F)c([N+](=O)[O-])c1
OUTPUT: 5.47

INPUT: Give me measured pIC50, please, for this compound: O=C(Cc1nc(N2CCOCC2)cc(=O)[nH]1)Nc1cccc(F)c1
OUTPUT: 5.96

INPUT: Return pIC50 for the following compound: O=C(Cc1nc(N2CCOCC2)cc(=O)[nH]1)Nc1cccc(Br)c1
OUTPUT: 6.72

INPUT: Tell me measured pIC50 for O=C(Cc1nc(N2CCOCC2)cc(=O)[nH]1)Nc1ccc(Cl)cc1 please.
OUTPUT: 5.56

INPUT: Supply measured pIC50 of Cn1c(CC(=O)Nc2ccc(F)c(Br)c2)nc(N2CCOCC2)cc1=O in your reply.
OUTPUT: 5.65

INPUT: Given the compound Cn1c(CC(=O)Nc2ccc(F)cc2)nc(N2CCOCC2)cc1=O , write its reported pIC50.
OUTPUT: 5.83

INPUT: Indicate its recorded pIC50; the compound in question is O=C(Cc1nc(N2CCOCC2)cc(=O)[nH]1)Nc1ccccc1F
OUTPUT: 5.61

INPUT: Kindly indicate its recorded pIC50. Item: COC(=O)c1cc(NC(=O)Cc2nc(N3CCOCC3)cc(=O)[nH]2)ccc1F
OUTPUT: 5.33

INPUT: Tell me measured pIC50 for COc1cc(NC(=O)Cc2nc(N3CCOCC3)cc(=O)n2C)ccc1F please.
OUTPUT: 5.62

INPUT: Specify pIC50 for O=C(Cc1nc(N2CCOCC2)cc(=O)[nH]1)Nc1ccc(F)c(Cl)c1 and stop.
OUTPUT: 6.86

INPUT: Report pIC50 for Cc1cccc(NC(=O)Cc2nc(N3CCOCC3)cc(=O)[nH]2)c1
OUTPUT: 6.79

INPUT: Please look at this compound and report its pIC50: Cc1cc(NC(=O)Cc2nc(N3CCOCC3)cc(=O)[nH]2)ccc1F
OUTPUT: 7.20

INPUT: Please list pIC50 recorded for the compound Cn1c(CC(=O)Nc2ccccc2)nc(N2CCOCC2)cc1=O
OUTPUT: 5.37

INPUT: Quickly give me recorded pIC50 for Cc1ccccc1NC(=O)Cc1nc(N2CCOCC2)cc(=O)[nH]1
OUTPUT: 5.37

INPUT: For the compound O=C(Cc1nc(N2CCOCC2)cc(=O)[nH]1)Nc1ccc(F)c(Br)c1 , give its reported pIC50.
OUTPUT: 6.53

INPUT: Quick one: give measured pIC50 for COc1cc(NC(=O)Cc2nc(N3CCOCC3)cc(=O)[nH]2)ccc1F
OUTPUT: 6.83

INPUT: Report pIC50 for Cn1c(CC(=O)Nc2ccc(F)c(F)c2)nc(N2CCOCC2)cc1=O
OUTPUT: 5.75

INPUT: Return pIC50 (reported value) for this compound: COc1cccc(NC(=O)Cc2nc(N3CCOCC3)cc(=O)[nH]2)c1
OUTPUT: 6.21

INPUT: Consider the compound O=C(Cc1nc(N2CCOCC2)cc(=O)[nH]1)Nc1cccc(Cl)c1 . State its measured pIC50.
OUTPUT: 6.56

INPUT: State, in one line, measured pIC50 of O=C(Cc1nc(N2CCOCC2)cc(=O)[nH]1)Nc1ccc(F)c(F)c1
OUTPUT: 6.87

INPUT: Consider the compound O=C(Cc1nc(N2CCOCC2)cc(=O)[nH]1)Nc1ccc(F)cc1 . State its measured pIC50.
OUTPUT: 7.07

INPUT: Identify measured pIC50 associated with Cn1c(CC(=O)Nc2ccc(F)c(Cl)c2)nc(N2CCOCC2)cc1=O
OUTPUT: 5.66

====

Experiment: Plasma concentration in SCID mouse xenografted with PTEN deficient human PC3 cells at 244 mg/kg, po administered as suspension after 1 hr
Type: ADME, organism-based, PC-3
Parameters: dose 244 mg/kg, route oral
test.readout: concentration at 1 h (µM)
# number only, unit µM dropped from output

INPUT: State its concentration at 1 h: Cn1c(CC(=O)Nc2ccc(F)c(Cl)c2)nc(N2CCOCC2)cc1=O
OUTPUT: 4.5

====

Assay: Drug uptake in PTEN deficient human PC3 cells xenografted SCID mouse tumor at 244 mg/kg, po administered as suspension after 6 hrs
Format: ADME, organism-based, Neoplasm, PC-3
Design: dose 244 mg/kg, route oral
Settings: tumor (PC3 xenograft), read-out: Drug uptake
test.readout: concentration at 6 h (nM)
Write the value in nM as a bare number.

INPUT: Give me measured concentration at 6 h, please, for this compound: Cn1c(CC(=O)Nc2ccc(F)c(Cl)c2)nc(N2CCOCC2)cc1=O
OUTPUT: 1700

====

Please provide measured IC50 for the entries that follow.
Molecular target: Phosphatidylinositol 4,5-bisphosphate 3-kinase catalytic subunit beta isoform (Homo sapiens)
Sequence (P42338 whole entry, canonical isoform): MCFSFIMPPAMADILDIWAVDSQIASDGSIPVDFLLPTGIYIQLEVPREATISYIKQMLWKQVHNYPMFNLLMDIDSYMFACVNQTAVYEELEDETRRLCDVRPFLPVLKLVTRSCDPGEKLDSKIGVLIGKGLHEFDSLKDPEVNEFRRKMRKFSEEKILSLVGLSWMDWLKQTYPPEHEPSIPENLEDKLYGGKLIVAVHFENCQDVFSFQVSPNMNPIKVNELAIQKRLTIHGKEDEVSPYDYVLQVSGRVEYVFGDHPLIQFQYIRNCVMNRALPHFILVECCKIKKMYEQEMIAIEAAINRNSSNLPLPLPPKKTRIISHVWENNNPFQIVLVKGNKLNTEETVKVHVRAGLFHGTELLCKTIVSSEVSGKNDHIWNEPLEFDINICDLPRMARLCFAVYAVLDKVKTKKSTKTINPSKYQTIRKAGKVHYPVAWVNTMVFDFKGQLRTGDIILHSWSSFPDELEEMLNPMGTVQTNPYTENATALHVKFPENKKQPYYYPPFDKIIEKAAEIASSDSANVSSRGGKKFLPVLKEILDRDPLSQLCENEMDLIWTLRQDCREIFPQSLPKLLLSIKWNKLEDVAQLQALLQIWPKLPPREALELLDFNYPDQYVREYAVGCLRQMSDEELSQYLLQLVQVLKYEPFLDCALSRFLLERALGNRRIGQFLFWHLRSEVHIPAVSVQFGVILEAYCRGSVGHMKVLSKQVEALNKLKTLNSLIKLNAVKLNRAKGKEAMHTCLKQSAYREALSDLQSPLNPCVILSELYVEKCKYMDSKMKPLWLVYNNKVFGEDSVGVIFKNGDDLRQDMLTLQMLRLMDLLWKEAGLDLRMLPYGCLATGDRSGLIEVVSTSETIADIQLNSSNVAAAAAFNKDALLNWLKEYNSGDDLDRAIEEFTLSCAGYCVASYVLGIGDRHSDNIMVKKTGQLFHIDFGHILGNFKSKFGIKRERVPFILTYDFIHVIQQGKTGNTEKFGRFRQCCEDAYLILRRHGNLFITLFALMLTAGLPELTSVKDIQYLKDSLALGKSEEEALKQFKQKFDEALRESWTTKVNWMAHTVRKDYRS
Experiment: Inhibition of PI3Kbeta
Number in µM, nothing else.

INPUT: Identify measured IC50 associated with O=C(Cc1nc(N2CCOCC2)cc(=O)[nH]1)Nc1cccc(Cl)c1
OUTPUT: 0.033

INPUT: Tell me IC50 reported for O=C(Cc1nc(N2CCOCC2)cc(=O)[nH]1)Nc1cccc(Br)c1
OUTPUT: 0.005

INPUT: Give IC50 for the following compound: Cn1c(CC(=O)Nc2ccc(F)c(Cl)c2)nc(N2CCOCC2)cc1=O
OUTPUT: 0.042

INPUT: Hello, please tell me recorded IC50 for this one: Cn1c(CC(=O)Nc2ccc(F)c(F)c2)nc(N2CCOCC2)cc1=O
OUTPUT: 0.262

INPUT: Report IC50, nothing else, for this compound: COc1cccc(NC(=O)Cc2nc(N3CCOCC3)cc(=O)[nH]2)c1
OUTPUT: 0.015

INPUT: # return recorded IC50 for input Cc1cccc(NC(=O)Cc2nc(N3CCOCC3)cc(=O)[nH]2)c1
OUTPUT: 0.017

INPUT: Return IC50 for the following compound: O=C(Cc1nc(N2CCOCC2)cc(=O)[nH]1)Nc1ccc(F)c(Br)c1
OUTPUT: 0.026

INPUT: In one line, give reported IC50 of the entry COC(=O)c1cc(NC(=O)Cc2nc(N3CCOCC3)cc(=O)[nH]2)ccc1F .
OUTPUT: 0.175

INPUT: Give recorded IC50. Cn1c(CC(=O)Nc2ccc(F)c(Br)c2)nc(N2CCOCC2)cc1=O
OUTPUT: 0.387

INPUT: Provide one value: measured IC50 of O=C(Cc1nc(N2CCOCC2)cc(=O)[nH]1)Nc1ccc(F)c([N+](=O)[O-])c1
OUTPUT: 0.047

INPUT: Answer with the recorded IC50 of COc1cc(NC(=O)Cc2nc(N3CCOCC3)cc(=O)[nH]2)ccc1F only.
OUTPUT: 0.003

Recorded values, source ChEMBL document CHEMBL2150988.
